Reference source for all entries: patent US20240270821A1

// log10 cAMP Rel EC50 (1% HSA) lookup, one value per entry
systemUnderTest: human glucagon receptor (human) (UniProt P47871)
Sequence (P47871 26-477): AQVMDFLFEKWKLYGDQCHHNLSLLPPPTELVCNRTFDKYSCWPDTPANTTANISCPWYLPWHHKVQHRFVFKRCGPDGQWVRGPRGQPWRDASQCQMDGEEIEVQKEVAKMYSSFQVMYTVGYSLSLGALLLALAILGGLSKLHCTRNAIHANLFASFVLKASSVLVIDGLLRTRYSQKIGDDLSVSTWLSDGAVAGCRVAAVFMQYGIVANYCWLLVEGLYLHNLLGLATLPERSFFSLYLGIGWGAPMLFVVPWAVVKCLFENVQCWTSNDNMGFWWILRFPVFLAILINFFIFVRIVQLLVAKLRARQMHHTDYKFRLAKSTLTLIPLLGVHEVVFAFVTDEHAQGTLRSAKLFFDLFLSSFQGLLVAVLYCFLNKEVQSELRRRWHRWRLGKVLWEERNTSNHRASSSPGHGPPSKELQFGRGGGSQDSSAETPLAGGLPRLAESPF
assayExplanation: cell-based or functional assay
The base-10 logarithm of cAMP Rel EC50 (1% HSA), taken with cAMP Rel EC50 (1% HSA) in nM, is what appears here.

YXQGTFTSDXSQXLDXKAQXAFIEYLIAXGPSSGAPPPSGSEE (non-natural residues; acylated Lys C18 diacid; C-term amide; synthetic construct; SITE 2: note = 2-Aminoisobutyric Acid; SITE 10: note = 3-(4-Pyridyl)-L-alanine; SITE 13: note = alpha-methyl-leucine; SITE 16: note = L-ornithine; SITE 17: note = Lysine is chemically modified through conjugation of the epsilon-amino group of the Lysine side chain with (gamma-Gl)) [Example 1091]: 2.74

Let's switch to this binder now.
Q: Provide one value: measured log10 cAMP Rel EC50 (1% HSA) of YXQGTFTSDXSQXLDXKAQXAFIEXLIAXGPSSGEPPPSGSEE (not fully specified; non-natural residues; Lys acylated γGlu-C18 diacid; C-terminal amide; synthetic construct; SITE 2: note = 2-Aminoisobutyric Acid; SITE 10: note = 3-(4-Pyridyl)-L-alanine; SITE 13: note = alpha-methyl-leucine; SITE 16: note = L-ornithine; SITE 17: note = Lysine is chemically modified through conjugation of the epsilon-amino group of the Lysine side chain with D-Glutami) [Example 1105]
A: 3.10
